These data points were gathered from patent US20090036449A1.

Catalogue of IC50 readings, one per entry.
# system_name: SGK1 protein kinase (Homo sapiens)
# Sequence (O00141 whole entry): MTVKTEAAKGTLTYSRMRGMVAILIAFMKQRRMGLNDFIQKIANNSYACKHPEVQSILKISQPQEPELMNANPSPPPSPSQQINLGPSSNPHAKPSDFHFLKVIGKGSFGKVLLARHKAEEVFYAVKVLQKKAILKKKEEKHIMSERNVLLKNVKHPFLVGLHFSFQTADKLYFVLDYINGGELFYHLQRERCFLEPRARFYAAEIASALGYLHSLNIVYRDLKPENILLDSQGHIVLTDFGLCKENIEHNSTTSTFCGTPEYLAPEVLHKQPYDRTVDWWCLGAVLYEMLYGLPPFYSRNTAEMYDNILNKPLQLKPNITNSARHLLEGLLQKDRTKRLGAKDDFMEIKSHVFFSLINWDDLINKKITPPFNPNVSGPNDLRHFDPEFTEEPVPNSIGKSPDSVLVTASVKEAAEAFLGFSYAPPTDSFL
Write the answer as a number in µM, unit excluded.

O=C(Nc1n[nH]c2ccc(Nc3c(NCc4cccc(O)c4)c(=O)c3=O)cc12)c1ccccc1: 0.01

Please look at the following molecule next.
Query (molecule): "COc1cccc(CNc2c(Nc3ccc4[nH]nc(NC(=O)c5ccccc5)c4c3)c(=O)c2=O)c1" ; field requested: IC50
0.0615
